Provenance of the data: ChEMBL document CHEMBL1938287

Assay: Half life in rat at 1 mg/kg, iv
Assay type: ADME, organism-based
Parameters: dose 1 mg/kg, route intravenous
Conditions: in vivo
measureName: half-life (h)
Use h as the unit, but write only the number.

| structureString | half-life, h |
| --- | --- |
| CC(C)(C)c1cc(NC(=O)NCc2ccccc2Sc2ccc3nnc(-c4ccccc4SCCO)n3c2)n(-c2ccc(O)c(Cl)c2)n1 | 1 |

Query string: What half-life value was documented for this molecule, CSC(C)(C)c1cc(NC(=O)NCc2ccccc2Sc2ccc3nnc(C(C)C)n3c2)n(-c2cccc(O)c2)n1 ?
Result string: 1

* * *

Each entry below carries its reported microsomal CLint.
Assay: Metabolic stability in human liver microsomes
Assay type: ADME, Microsome
Settings: read-out: Stability

| structureString | measureName | result |
| --- | --- | --- |
| Cc1ccc(-n2nc(C(C)(C)C)cc2NC(=O)NCc2ccccc2Sc2ccc3nnc(-c4ccccc4O)n3c2)cc1 | microsomal CLint | 279 µL/min/mg |

Query string: microsomal CLint for CC(C)(C)c1cc(NC(=O)NCc2ccccc2Sc2ccc3nnc(-c4cc(O)ccc4Cl)n3c2)n(-c2cccc(OCCO)c2)n1 ?
Result string: > 285 µL/min/mg

Query string: // returns reported microsomal CLint for input CSCC(C)(C)c1cc(NC(=O)NCc2ccccc2Sc2ccc3nnc(-c4ccccc4O)n3c2)n(-c2ccccc2)n1
Result string: > 440 µL/min/mg

Query string: If you can, please state the reported microsomal CLint value of CC(C)(C)c1cc(NC(=O)NCc2ccccc2Sc2ccc3nnc(-c4ccccc4OCCO)n3c2)n(-c2ccc(O)c(F)c2)n1 .
Result string: > 440 µL/min/mg

Query string: Given the compound CSc1ccccc1-c1nnc2ccc(Sc3ccccc3CNC(=O)Nc3cc(C(C)(C)C)nn3-c3cccc(O)c3)cn12 , what is its reported microsomal CLint?
Result string: 304 µL/min/mg

Query string: Quick one: microsomal CLint of CSCC(C)(C)c1cc(NC(=O)NCc2ccccc2Sc2ccc3nnc(-c4ccccc4OCCO)n3c2)n(-c2ccc(O)c(Cl)c2)n1 ?
Result string: > 440 µL/min/mg

Query string: Value lookup for microsomal CLint; key = CC(C)c1nnc2ccc(Sc3ccccc3CNC(=O)Nc3cc(C(C)(C)C)nn3-c3ccc(O)cc3)cn12
Result string: 196 µL/min/mg

Query string: Fill in the blank: the reported microsomal CLint of CC(C)c1nnc2ccc(Sc3ccccc3CNC(=O)Nc3cc(C(C)(C)C)nn3-c3ccccc3)cn12 is ____.
Result string: > 320 µL/min/mg

* * *

Assay: Metabolic stability in human liver microsomes assessed as phase II glucuronidation in the presence of uridine diphosphate glucuronic acid and absence of NADPH
Type: ADME, Microsome
Conditions: read-out: Stability
measureName: microsomal CLint (µL/min/mg)
Numbers only here, please. The scale is µL/min/mg.

Some solved entries appear below for comparison.
| structureString | measureName | unitSymbol | numericResult |
| --- | --- | --- | --- |
| CSCC(C)(C)c1cc(NC(=O)NCc2ccccc2Sc2ccc3nnc(-c4ccccc4OCCO)n3c2)n(-c2ccc(O)c(Cl)c2)n1 | microsomal CLint | µL/min/mg | 310 |
| CC(C)(C)c1cc(NC(=O)NCc2ccccc2Sc2ccc3nnc(-c4ccccc4OCCO)n3c2)n(-c2ccc(Cl)c(O)c2)n1 | microsomal CLint | µL/min/mg | 70 |
| CC(C)(C)c1cc(NC(=O)NCc2ccccc2Sc2ccc3nnc(-c4ccccc4OCCO)n3c2)n(-c2ccc(O)c(Cl)c2)n1 | microsomal CLint | µL/min/mg | 130 |
| CC(C)(C)c1cc(NC(=O)NCc2ccccc2Sc2ccc3nnc(-c4ccccc4SCCO)n3c2)n(-c2cccc(O)c2)n1 | microsomal CLint | µL/min/mg | 4 |
| CSC(C)(C)c1cc(NC(=O)NCc2ccccc2Sc2ccc3nnc(C(C)C)n3c2)n(-c2ccccc2)n1 | microsomal CLint | µL/min/mg | 1.7 |

Query string: Returns the measured microsomal CLint for the input compound. Input: CSC(C)(C)c1cc(NC(=O)NCc2ccccc2Sc2ccc3nnc(C(C)C)n3c2)n(-c2cccc(O)c2)n1
Result string: 2

Query string: I'd like to know its microsomal CLint. The compound in question is CC(C)c1nnc2ccc(Sc3ccccc3CNC(=O)Nc3cc(C(C)(C)C)nn3-c3ccc(O)c(Cl)c3)cn12
Result string: 155

Query string: I'd like to know its microsomal CLint. The compound in question is CC(C)(C)c1cc(NC(=O)NCc2ccccc2Sc2ccc3nnc(-c4ccccc4O)n3c2)n(-c2cccc(OCCO)c2)n1
Result string: 8

Query string: Name the recorded microsomal CLint for CSCC(C)(C)c1cc(NC(=O)NCc2ccccc2Sc2ccc3nnc(-c4ccccc4O)n3c2)n(-c2ccccc2)n1 .
Result string: 27

Query string: Query: microsomal CLint; subject: CC(C)(C)c1cc(NC(=O)NCc2ccccc2Sc2ccc3nnc(-c4ccccc4SCCO)n3c2)n(-c2ccc(O)c(Cl)c2)n1
Result string: 205

Query string: Look up microsomal CLint for this compound: Cc1ccc(-n2nc(C(C)(C)C)cc2NC(=O)NCc2ccccc2Sc2ccc3nnc(-c4cc(O)ccc4Cl)n3c2)cc1
Result string: 43

Query string: // returns reported microsomal CLint for input CSCC(C)(C)c1cc(NC(=O)NCc2ccccc2Sc2ccc3nnc(-c4ccccc4SCCO)n3c2)n(-c2ccc(O)c(Cl)c2)n1
Result string: 264

Query string: For Cc1cccc(-n2nc(C(C)(C)C)cc2NC(=O)NCc2ccccc2Sc2ccc3nnc(-c4cccc(Cl)c4O)n3c2)c1 , what is its reported microsomal CLint?
Result string: 41

Query string: Look up microsomal CLint for this compound: CC(C)c1nnc2ccc(Sc3ccccc3CNC(=O)Nc3cc(C(C)(C)C)nn3-c3ccc(Cl)c(O)c3)cn12
Result string: 66
